experimental target: vcCNT (Vibrio cholerae, UniProt Q9KPL5)
Sequence (Q9KPL5 entry or part of it): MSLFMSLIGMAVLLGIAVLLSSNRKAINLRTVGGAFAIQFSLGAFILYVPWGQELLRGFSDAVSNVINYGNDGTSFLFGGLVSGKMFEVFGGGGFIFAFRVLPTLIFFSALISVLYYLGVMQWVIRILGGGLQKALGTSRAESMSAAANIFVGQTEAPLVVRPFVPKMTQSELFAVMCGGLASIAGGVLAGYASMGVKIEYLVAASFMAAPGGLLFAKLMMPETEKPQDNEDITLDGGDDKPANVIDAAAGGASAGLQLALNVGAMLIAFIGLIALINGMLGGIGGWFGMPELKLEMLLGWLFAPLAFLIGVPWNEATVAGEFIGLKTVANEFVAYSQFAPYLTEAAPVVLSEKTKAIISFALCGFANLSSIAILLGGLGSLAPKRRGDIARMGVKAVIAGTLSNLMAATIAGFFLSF
assay: biochemical
Type: binding
experimental context: KD
Method: The fluorescence anisotropy after each addition was measured. Each titration was performed at least three times. The data for the three titrations were simultaneously fit to a one-site competitive binding model based off of Wang's method ([Wang, 1995]) using nonlinear least-squares analysis in GraphPad Prism to obtain a dissociation constant and standard error.
So I've got a bunch of molecules here, and I need their Kd values.

get_value(item= C[C@H]1O[C@@H](n2ccc(=O)[nH]c2=O)[C@H](O)[C@@H]1O [5'-deoxyuridine] , readout=Kd) returns > 2800 µM

get_value(item= Nc1ncnc2c1ncn2[C@@H]1O[C@H](CO)[C@@H](O)[C@H]1O [adenosine] , readout=Kd) returns 470 µM

get_value(item= O=c1ncccn1[C@@H]1O[C@H](CO)[C@@H](O)[C@H]1O [zebularine] , readout=Kd) returns 120 µM

get_value(item= O=c1[nH]c(=O)n([C@@H]2O[C@H](CO)[C@@H](O)[C@H]2O)cc1F [5-fluorouridine] , readout=Kd) returns 16 µM

get_value(item= O=c1[nH]c(=O)n([C@@H]2O[C@H](CO)[C@@H](O)[C@H]2O)cc1I [5-iodouridine] , readout=Kd) returns 58 µM

get_value(item= Cc1cn([C@@H]2O[C@H](CO)[C@@H](O)[C@H]2O)c(=O)[nH]c1=O [5-methyluridine] , readout=Kd) returns 61 µM

get_value(item= NC(=O)c1ncn([C@@H]2O[C@H](CO)[C@@H](O)[C@H]2O)n1 [ribavirin] , readout=Kd) returns 1530 µM

get_value(item= Cn1c(=O)ccn([C@@H]2O[C@H](CO)[C@@H](O)[C@H]2O)c1=O [3-methyluridine] , readout=Kd) returns 520 µM

get_value(item= O=c1ccn([C@H]2C[C@H](O)[C@@H](CO)O2)c(=O)[nH]1 [2′-deoxyuridine] , readout=Kd) returns 170 µM

get_value(item= O=c1ccn([C@@H]2O[C@H](CO)C[C@H]2O)c(=O)[nH]1 [3′-deoxyuridine] , readout=Kd) returns > 2800 µM

get_value(item= O=c1[nH]c(=O)n([C@@H]2O[C@H](CO)[C@@H](O)[C@H]2O)cc1Cl [5-chlorouridine] , readout=Kd) returns 14 µM

From: paper PMC4139061
